# study system: NS3 (Hepatitis C virus)
# Sequence (A3EZJ3 whole entry): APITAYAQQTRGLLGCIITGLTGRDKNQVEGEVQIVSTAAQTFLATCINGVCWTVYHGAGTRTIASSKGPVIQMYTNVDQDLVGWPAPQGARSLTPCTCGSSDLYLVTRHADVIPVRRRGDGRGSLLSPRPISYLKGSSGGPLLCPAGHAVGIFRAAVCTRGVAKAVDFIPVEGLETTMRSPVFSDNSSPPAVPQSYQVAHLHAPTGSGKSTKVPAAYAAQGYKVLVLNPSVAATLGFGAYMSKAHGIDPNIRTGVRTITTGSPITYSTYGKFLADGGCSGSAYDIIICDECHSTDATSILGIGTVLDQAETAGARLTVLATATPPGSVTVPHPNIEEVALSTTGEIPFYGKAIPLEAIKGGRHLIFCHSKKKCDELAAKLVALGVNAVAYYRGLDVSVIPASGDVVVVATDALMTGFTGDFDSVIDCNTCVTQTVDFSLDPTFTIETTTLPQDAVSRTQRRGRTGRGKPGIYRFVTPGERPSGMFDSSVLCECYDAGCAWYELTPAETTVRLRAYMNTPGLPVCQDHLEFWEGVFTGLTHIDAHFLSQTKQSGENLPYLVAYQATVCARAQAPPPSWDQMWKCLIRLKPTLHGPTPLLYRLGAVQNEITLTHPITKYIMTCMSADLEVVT
# measurement protocol: Inhibitory activity against hepatitis C virus (HCV) NS3 protease in the presence of Zn2+.
# Set-up: species or system Hepacivirus hominis
observed property: IC50 (µM)
Just the number please, in µM, no unit attached.

Worked cases, answers included:
compound | IC50 / µM
Cn1c(Cc2nc3ccc(C(N)=O)cc3[nH]2)nc2ccc(C(=O)Nc3cccc(C(=O)NCCCC(=O)O)c3)cc21 | 43
Cn1c(Cc2nc3ccccc3[nH]2)nc2ccc(C(=O)NC(CCC(=O)N(CC(=O)O)CC(=O)O)C(=O)O)cc21 (stereo not drawn) | 7.7
Cn1c(Cc2nc3ccc(C(N)=O)cc3[nH]2)nc2ccc(C(=O)NC(Cc3ccc(O)c(C(=O)O)c3)C(=O)O)cc21 (stereo not drawn) | 7
Cn1c(Cc2nc3cc(C(N)=O)ccc3[nH]2)nc2ccc(C(=O)Nc3cc(C(=O)O)cc(C(=O)NC(CC(=O)O)C(=O)O)c3)cc21 (stereo not drawn) | 1

Request: Read the entry Cn1c(Cc2nc3ccccc3[nH]2)nc2ccc(C(=O)NCCc3ccc(OCC(=O)NS(=O)(=O)c4ccccc4)cc3)cc21 and write its reported IC50.
Result: 12

Request: Read the entry Cn1c(Cc2nc3cc(C(N)=O)ccc3[nH]2)nc2ccc(C(=O)Nc3cc(C(=O)O)cc(C(=O)NC(CCC(=O)O)C(=O)O)c3)cc21 (stereo not drawn) and write its reported IC50.
Result: 2

Request: Read the entry Cn1c(Cc2nc3cc(C(N)=O)ccc3[nH]2)nc2ccc(C(=O)NC(CCP(=O)(O)O)C(=O)O)cc21 (stereo not drawn) and write its reported IC50.
Result: 0.87

Request: Read the entry Cn1c(Cc2nc3cc(C(N)=O)ccc3[nH]2)nc2ccc(C(=O)NC(CC(C(=O)O)C(=O)O)C(=O)O)cc21 (stereo not drawn) and write its reported IC50.
Result: 2.6
